Target: TNIK/MAP4K7 (Homo sapiens)
Sequence (Q9UKE5 whole entry): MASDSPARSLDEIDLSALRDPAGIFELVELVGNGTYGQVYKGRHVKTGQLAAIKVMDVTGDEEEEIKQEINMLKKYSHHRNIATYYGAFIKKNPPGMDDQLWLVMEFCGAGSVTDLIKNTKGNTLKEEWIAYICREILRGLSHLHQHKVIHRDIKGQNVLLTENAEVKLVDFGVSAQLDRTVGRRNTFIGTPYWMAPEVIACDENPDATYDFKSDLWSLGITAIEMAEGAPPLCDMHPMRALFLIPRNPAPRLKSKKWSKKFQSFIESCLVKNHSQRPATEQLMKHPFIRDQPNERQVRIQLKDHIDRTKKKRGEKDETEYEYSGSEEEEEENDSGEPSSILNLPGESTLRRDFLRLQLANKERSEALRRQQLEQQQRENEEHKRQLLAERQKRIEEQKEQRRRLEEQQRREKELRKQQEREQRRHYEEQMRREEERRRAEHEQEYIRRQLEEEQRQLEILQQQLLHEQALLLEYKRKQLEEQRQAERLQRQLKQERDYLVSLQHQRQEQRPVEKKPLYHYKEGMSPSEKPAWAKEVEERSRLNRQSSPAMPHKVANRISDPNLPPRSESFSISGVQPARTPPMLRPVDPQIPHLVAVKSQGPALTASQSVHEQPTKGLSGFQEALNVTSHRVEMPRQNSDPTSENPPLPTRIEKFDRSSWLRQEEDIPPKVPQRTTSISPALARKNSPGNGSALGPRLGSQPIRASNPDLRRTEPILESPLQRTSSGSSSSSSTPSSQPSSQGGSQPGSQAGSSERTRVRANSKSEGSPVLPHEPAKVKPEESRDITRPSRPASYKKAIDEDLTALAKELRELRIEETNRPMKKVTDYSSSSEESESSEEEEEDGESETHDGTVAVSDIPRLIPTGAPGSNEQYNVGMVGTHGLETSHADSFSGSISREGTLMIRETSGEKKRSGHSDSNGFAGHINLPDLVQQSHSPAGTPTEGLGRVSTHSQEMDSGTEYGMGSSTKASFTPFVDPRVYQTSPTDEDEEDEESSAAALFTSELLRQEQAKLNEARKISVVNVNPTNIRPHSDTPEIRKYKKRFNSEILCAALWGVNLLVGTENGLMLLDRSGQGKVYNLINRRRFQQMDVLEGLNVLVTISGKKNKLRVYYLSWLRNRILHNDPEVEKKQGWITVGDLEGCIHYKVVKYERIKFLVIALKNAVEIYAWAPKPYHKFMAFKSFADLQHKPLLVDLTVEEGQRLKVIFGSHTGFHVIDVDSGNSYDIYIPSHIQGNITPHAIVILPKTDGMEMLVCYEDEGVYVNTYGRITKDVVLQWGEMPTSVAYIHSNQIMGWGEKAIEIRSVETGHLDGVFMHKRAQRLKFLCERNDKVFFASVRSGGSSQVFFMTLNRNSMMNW
Test: Kinase selectivity panel, TNIK/MAP4K7
Type: biochemical
Conditions: read-out: pIC50 TNIK/MAP4K7 (converted)
Please note: IC50 exactly at 100 nM is Condition not met. Only values below 100 nM get Condition met.

{"columns": ["Molecule", "Target Or Test System", "Assigned Category"],
 "data": [
  ["O=c1[nH]cnc2c1c(-c1cnn(C3COC3)c1)cn2-c1ccccc1", "TNIK/MAP4K7 (Homo sapiens)", "Condition not met"]
]}

A record lists O=c1[nH]cnc2c1c(-c1cnn(CCO)c1)cn2-c1ccccc1 . Is its IC50 below 100 nM?
Condition met

Does CC(C)(O)CCOc1ccc(-c2cn(-c3cccnc3)c3nc[nH]c(=O)c23)cc1 have IC50 strictly under 100 nM?
Condition not met

Given COCCOc1ccc(-c2cn(-c3ccncc3)c3nc[nH]c(=O)c23)cc1 , is recorded IC50 strictly lower than 100 nM?
Condition met

hey, is IC50 for COCCOc1ccc(-c2cn(-c3cccc(F)c3)c3nc[nH]c(=O)c23)cn1 lower than 100 nM or not?
Condition met

Could you please tell me whether IC50 recorded for O=c1[nH]cnc2c1c(-c1ccc(OCC(O)CN3CCOCC3)cc1)cn2-c1cccnc1 (stereo not shown) is less than 100 nM?
Condition met

Is the reported IC50 for COCCOc1ccc(-c2cn(-c3cccnc3)c3nc[nH]c(=O)c23)cc1 strictly below 100 nM?
Condition not met
